Known microsomal CLint at 2 μM of a selection of compounds
- EXPERIMENTAL_DETAILS: Metabolic stability in liver microsomes, rat
- SETTINGS: rat, microsomes, pH 7.4
Where a name gives a salt, the structure may show the parent alone.
READOUT_TYPE: microsomal CLint at 2 μM

INSERT INTO assay_data (compound, result) VALUES
  ('COc1ccsc1CNCC[C@@]1(c2ccccn2)CCOC2(CCCC2)C1 [TRV-130, reference compound]', '863 µL/min/mg'),
  ('[2H]C([2H])([2H])N(C[C@@H]1CN(S(=O)(=O)Cc2ccccc2)CC[C@@]1(O)c1cccc(OC)c1)C([2H])([2H])[2H] [II-3hydrochloride]', '697 µL/min/mg'),
  ('[2H]C([2H])([2H])Oc1cccc([C@]2(O)CCN(S(=O)(=O)Cc3ccccc3)C[C@H]2CN(C([2H])([2H])[2H])C([2H])([2H])[2H])c1 [II-5hydrochloride]', '763 µL/min/mg');

###

- Test system: ICR mice
- EXPERIMENTAL_DETAILS: Evaluation of side effects of constipation (defecation time, number, weight)
- Format: in vivo
- SETTINGS: 5 mg/kg; only animals that defecate within 5 hours; x ± SE
Structures can show the parent of a compound that is named as a salt.
READOUT_TYPE: water content of feces (%)

INSERT INTO assay_data (compound, readout_type, unit_of_measurement, quantitative_readout) VALUES
  ('[2H]C([2H])([2H])N(C)C[C@@H]1CN(S(=O)(=O)Cc2ccccc2)CC[C@@]1(O)c1cccc(OC)c1 [II-1hydrochloride]', 'water content of feces', '%', 38.2),
  ('[2H]C([2H])([2H])N(C[C@@H]1CN(C(=O)Cc2cc(F)c(F)cc2F)CC[C@@]1(O)c1cccc(OC)c1)C([2H])([2H])[2H] [II-9hydrochloride]', 'water content of feces', '%', 37.9),
  ('[2H]C([2H])([2H])Oc1cccc([C@]2(O)CCN(S(=O)(=O)Cc3ccccc3)C[C@H]2CN(C([2H])([2H])[2H])C([2H])([2H])[2H])c1 [II-5hydrochloride]', 'water content of feces', '%', 37.6),
  ('[2H]C([2H])([2H])Oc1cccc([C@]2(O)CCN(C(=O)Cc3cc(F)c(F)cc3F)C[C@H]2CN(C([2H])([2H])[2H])C([2H])([2H])[2H])c1 [II-11hydrochloride]', 'water content of feces', '%', 38.2),
  ('[2H]C([2H])([2H])N(C[C@@H]1CN(S(=O)(=O)Cc2ccccc2)CC[C@@]1(O)c1cccc(OC)c1)C([2H])([2H])[2H] [II-3hydrochloride]', 'water content of feces', '%', 37.8),
  ('[2H]C([2H])([2H])N(C)C[C@@H]1CN(C(=O)Cc2cc(F)c(F)cc2F)CC[C@@]1(O)c1cccc(OC)c1 [II-7hydrochloride]', 'water content of feces', '%', 38.6),
  ('COc1cccc([C@]2(O)CCN(S(=O)(=O)Cc3ccccc3)C[C@H]2CN(C)C)c1.Cl [Example 20 of CN201911076305.X, reference compound]', 'water content of feces', '%', 0);

###

- EXPERIMENTAL_DETAILS: Metabolic stability in liver microsomes, dog
- SETTINGS: dog, microsomes, pH 7.4
- Method: The solution B is slowly dropped into solution A, and the pH is adjusted to 7.40±0.05. • Control drug: 4 μL Verapamil solution (10 mM) is added with 96 μL DMSO and diluted to 400 μM; • Compound to be tested: 4 μL compound to be tested (10 mM) is added with 96 μL normal saline and diluted to 400 μM. The microsomes are stored in the refrigerator at −80° C., thawed at room temperature after being taken out, and mixed gently. […] PBS (100 mm, pH=7.4) solution is added to the negative sample. […]
Counter-ions that a name gives are not always drawn.
Known microsomal CLint at 2 μM of a selection of molecules
READOUT_TYPE: microsomal CLint at 2 μM

INSERT INTO results (molecule, result) VALUES
  ('[2H]C([2H])([2H])Oc1cccc([C@]2(O)CCN(S(=O)(=O)Cc3ccccc3)C[C@H]2CN(C([2H])([2H])[2H])C([2H])([2H])[2H])c1 [II-5hydrochloride]', '720 µL/min/mg'),
  ('[2H]C([2H])([2H])N(C)C[C@@H]1CN(S(=O)(=O)Cc2ccccc2)CC[C@@]1(O)c1cccc(OC)c1 [II-1hydrochloride]', '605 µL/min/mg'),
  ('[2H]C([2H])([2H])Oc1cccc([C@]2(O)CCN(C(=O)Cc3cc(F)c(F)cc3F)C[C@H]2CN(C([2H])([2H])[2H])C([2H])([2H])[2H])c1 [II-11hydrochloride]', '703 µL/min/mg'),
  ('COc1ccsc1CNCC[C@@]1(c2ccccn2)CCOC2(CCCC2)C1 [TRV-130, reference compound]', '624 µL/min/mg'),
  ('[2H]C([2H])([2H])N(C)C[C@@H]1CN(C(=O)Cc2cc(F)c(F)cc2F)CC[C@@]1(O)c1cccc(OC)c1 [II-7hydrochloride]', '669 µL/min/mg');

###

- TARGET_SYSTEM: μOR (Homo sapiens, UniProt P35372)
- Construct: expressed in transfected cells; host or cells: CHO cells
- Sequence (P35372 whole entry): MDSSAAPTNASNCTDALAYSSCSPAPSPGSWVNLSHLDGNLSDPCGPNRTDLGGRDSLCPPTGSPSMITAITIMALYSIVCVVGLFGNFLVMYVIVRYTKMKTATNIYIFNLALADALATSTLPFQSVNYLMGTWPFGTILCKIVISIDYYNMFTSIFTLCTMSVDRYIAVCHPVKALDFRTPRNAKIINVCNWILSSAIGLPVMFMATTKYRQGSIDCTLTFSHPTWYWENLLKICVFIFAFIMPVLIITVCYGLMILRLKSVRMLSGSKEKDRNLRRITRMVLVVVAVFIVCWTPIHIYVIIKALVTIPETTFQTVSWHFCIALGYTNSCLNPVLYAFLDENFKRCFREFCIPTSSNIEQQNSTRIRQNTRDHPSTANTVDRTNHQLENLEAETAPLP
- EXPERIMENTAL_DETAILS: Opioid receptor competitive binding test, μOR
- SETTINGS: compound at 10 μM; [3H]-labeled ligand; CHO cell membranes; ± SD of three measurements
Where a name gives a salt, the structure may show the parent alone.
READOUT_TYPE: μOR binding rate (%)

INSERT INTO measurements (molecule, readout_type, quantitative_readout) VALUES
  ('[2H]C([2H])([2H])N(CC1CN(S(=O)(=O)Cc2ccccc2)CCC1(O)c1cccc(OC)c1)C([2H])([2H])[2H] (stereo not drawn) [I-4hydrochloride]', 'μOR binding rate', 25.9),
  ('COc1cccc(C2(O)CCCCC2CN(C)C)c1 (stereo not drawn) [Tramadol, reference compound]', 'μOR binding rate', 6.0),
  ('[2H]C([2H])([2H])Oc1cccc([C@]2(O)CCN(S(=O)(=O)Cc3ccccc3)C[C@H]2CN(C)C([2H])([2H])[2H])c1 [II-6hydrochloride]', 'μOR binding rate', 28.4),
  ('[2H]C([2H])([2H])Oc1cccc(C2(O)CCN(C(=O)Cc3cc(F)c(F)cc3F)CC2CN(C([2H])([2H])[2H])C([2H])([2H])[2H])c1 (stereo not drawn) [I-7hydrochloride]', 'μOR binding rate', 20.7),
  ('[2H]C([2H])([2H])Oc1cccc([C@]2(O)CCN(C(=O)Cc3cc(F)c(F)cc3F)C[C@H]2CN(C)C([2H])([2H])[2H])c1 [II-12hydrochloride]', 'μOR binding rate', 26.3),
  ('[2H]C([2H])([2H])Oc1cccc(C2(O)CCN(S(=O)(=O)Cc3ccccc3)CC2CN(C([2H])([2H])[2H])C([2H])([2H])[2H])c1 (stereo not drawn) [I-3hydrochloride]', 'μOR binding rate', 22.75),
  ('[2H]C([2H])([2H])Oc1cccc(C2(O)CCN(C(=O)Cc3cc(F)c(F)cc3F)CC2CN(C)C([2H])([2H])[2H])c1 (stereo not drawn) [I-6hydrochloride]', 'μOR binding rate', 21.0),
  ('[2H]C([2H])([2H])Oc1cccc([C@]2(O)CCN(C(=O)Cc3cc(F)c(F)cc3F)C[C@H]2CN(C([2H])([2H])[2H])C([2H])([2H])[2H])c1 [II-11hydrochloride]', 'μOR binding rate', 24.3),
  ('COc1cccc([C@]2(O)CCN(S(=O)(=O)Cc3ccccc3)C[C@H]2CN(C)C)c1.Cl [Example 20 of CN201911076305.X, reference compound]', 'μOR binding rate', 27.52);
